Kindly supply the reported Activity values for the records listed here.
# System: Rattus norvegicus
# protocol.text: Cardiotoxicity in Wistar rat assessed as decrease in cardiac beats per minute at 10 mg/kg, iv by ECG
# Assay type: toxicity, organism-based, Heart
# Parameters: dose 10 mg/kg, route intravenous; scale not given: the % may be the effect or the level left
# experimental.conditions: in vivo
Give a bare numeral; the unit % is implied.

Incoming: Recorded Activity for CC(C)(CO)NCCCOc1cccc2c(=O)c3ccccc3oc12.Cl , please?
Outgoing: 15

Incoming: Need Activity, item C=CCNCC(O)COc1cccc2c(=O)c3ccccc3oc12.Cl (centres undefined)
Outgoing: 24

Incoming: # input compound: CC(C)(CO)NCC(O)COc1cccc2c(=O)c3ccc(Cl)cc3oc12.Cl (centres undefined) ; wanted: its Activity
Outgoing: 30

Incoming: So what's the measured Activity for this one? C=CCNCCCOc1cccc2c(=O)c3ccccc3oc12.Cl
Outgoing: 20

###

# tested.on: Adrenergic receptor alpha-1 (Rattus norvegicus, UniProt P15823+P23944+P43140)
# Sequence (P15823 whole entry): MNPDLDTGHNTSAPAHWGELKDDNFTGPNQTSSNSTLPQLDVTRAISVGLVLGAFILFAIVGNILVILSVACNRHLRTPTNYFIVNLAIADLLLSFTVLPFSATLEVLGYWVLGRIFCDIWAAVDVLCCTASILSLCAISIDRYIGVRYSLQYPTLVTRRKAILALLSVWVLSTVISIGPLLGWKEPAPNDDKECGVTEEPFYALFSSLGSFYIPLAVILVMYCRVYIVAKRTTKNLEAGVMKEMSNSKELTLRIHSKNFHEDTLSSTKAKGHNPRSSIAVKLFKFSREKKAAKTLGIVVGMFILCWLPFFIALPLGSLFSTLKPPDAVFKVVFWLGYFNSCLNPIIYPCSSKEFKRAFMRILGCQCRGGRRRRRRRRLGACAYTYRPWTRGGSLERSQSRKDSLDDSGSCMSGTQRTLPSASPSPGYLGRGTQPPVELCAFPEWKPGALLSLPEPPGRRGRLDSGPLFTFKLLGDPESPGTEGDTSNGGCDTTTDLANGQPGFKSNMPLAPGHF
# Sequence (P23944 whole entry): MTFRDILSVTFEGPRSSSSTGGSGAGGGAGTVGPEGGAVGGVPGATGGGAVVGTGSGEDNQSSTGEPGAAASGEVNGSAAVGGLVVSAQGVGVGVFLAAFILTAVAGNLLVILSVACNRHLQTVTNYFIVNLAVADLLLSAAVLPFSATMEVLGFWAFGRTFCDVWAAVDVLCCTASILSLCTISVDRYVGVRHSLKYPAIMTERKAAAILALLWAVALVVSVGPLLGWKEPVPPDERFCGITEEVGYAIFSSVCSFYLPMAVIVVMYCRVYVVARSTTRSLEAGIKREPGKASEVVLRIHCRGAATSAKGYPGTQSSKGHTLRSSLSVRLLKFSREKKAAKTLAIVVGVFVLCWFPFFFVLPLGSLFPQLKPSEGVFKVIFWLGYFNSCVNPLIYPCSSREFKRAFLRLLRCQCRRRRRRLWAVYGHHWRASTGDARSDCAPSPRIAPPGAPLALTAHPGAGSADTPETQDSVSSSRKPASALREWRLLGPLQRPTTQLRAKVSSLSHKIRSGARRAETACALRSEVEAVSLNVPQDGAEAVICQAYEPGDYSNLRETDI
# Sequence (P43140 whole entry): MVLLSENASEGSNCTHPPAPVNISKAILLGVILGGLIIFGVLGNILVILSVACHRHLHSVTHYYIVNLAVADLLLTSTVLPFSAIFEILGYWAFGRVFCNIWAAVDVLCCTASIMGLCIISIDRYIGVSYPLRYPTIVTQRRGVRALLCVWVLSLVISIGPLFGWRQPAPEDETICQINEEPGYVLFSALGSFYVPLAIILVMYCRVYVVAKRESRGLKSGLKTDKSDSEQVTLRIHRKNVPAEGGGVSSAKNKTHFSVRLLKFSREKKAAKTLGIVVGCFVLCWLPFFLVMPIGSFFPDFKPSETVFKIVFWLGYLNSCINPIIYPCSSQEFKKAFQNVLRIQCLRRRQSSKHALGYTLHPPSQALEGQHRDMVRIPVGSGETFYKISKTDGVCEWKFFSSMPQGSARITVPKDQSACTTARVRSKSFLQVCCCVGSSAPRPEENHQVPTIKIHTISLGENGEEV
# protocol.text: Displacement of [3H]prazosin from alpha1 adrenergic receptor in rat cerebral cortex by liquid scintillation counting
# Format: tissue-based
Lab note: anything with Ki below 9 µM is marked YES; values at 9 µM or higher are marked NO.

Incoming: Take the compound CC(CO)(CO)NCC(O)COc1cccc2c(=O)c3ccc(Cl)cc3oc12.Cl (stereo not drawn) and say whether its Ki is less than 9 µM.
Outgoing: NO

Incoming: Record C=CCNCC(O)COc1ccc2c(=O)c3ccccc3oc2c1.Cl (stereo not drawn) : is its Ki strictly below 9 µM?
Outgoing: YES

Incoming: Take the compound CC(C)(CO)NCCCOc1cccc2c(=O)c3ccccc3oc12.Cl and say whether its Ki is less than 9 µM.
Outgoing: YES

Incoming: Does the reported Ki of the following compound sit strictly below 9 µM? CC(C)(CO)NCC(O)COc1cccc2c(=O)c3ccc(Cl)cc3oc12.Cl (stereo not drawn)
Outgoing: YES

Incoming: Please state whether Ki is below 9 µM for CC(CO)(CO)NCC(O)COc1cccc2c(=O)c3ccccc3oc12.Cl (stereo not drawn)
Outgoing: NO

Incoming: Please determine if C=CCNCC(O)COc1ccc2oc3ccccc3c(=O)c2c1.Cl (stereo not drawn) is below 9 µM in terms of Ki.
Outgoing: YES

Incoming: Report whether reported Ki is lower than 9 µM (strictly) for C=CCNCC(O)COc1cccc2c(=O)c3ccccc3oc12.Cl (stereo not drawn)
Outgoing: YES

Incoming: Please check: Ki for C=CCNCCCOc1cccc2c(=O)c3ccccc3oc12.Cl , strictly under 9 µM or not?
Outgoing: YES
